Assay: Chemical stability of compound in 0.9% NaCl buffer assessed as compound degradation at 1 mg/ml incubated for 8 weeks at 40 degreeC by HPLC-UV analysis
Assay type: physicochemical
Details: read-out: Drug degradation
RESULT TYPE: degraded at 1344 h, 1 mg/ml

Ask | Data request, read-out degraded at 1344 h, 1 mg/ml, for "Nc1ncnc2c1ncn2[C@@H]1O[C@@H]2CO[P@@](=O)(S)O[C@@H]3[C@H](O)[C@@H](CO[P@@](=O)(S)O[C@H]2[C@H]1F)O[C@H]3n1cnc2c(=O)[nH]ncc21"
Reply | > 0.5%

----------
Experiment: Aqueous solubility of compound in 0.9% NaCl buffer at pH 6.4 incubated for 2 hrs by HPLC-UV analysis
Type: physicochemical
RESULT TYPE: solubility at 2 h

Ask | Data request, read-out solubility at 2 h, for "Nc1ncnc2c1ncn2[C@@H]1O[C@@H]2CO[P@@](=O)(S)O[C@@H]3[C@H](O)[C@@H](CO[P@@](=O)(S)O[C@H]2[C@H]1F)O[C@H]3n1cnc2c(=O)[nH]ncc21"
Reply | > 10 mg/mL

----------
For each of the compounds below, state its EC50.
Target: Stimulator of interferon genes protein (Homo sapiens, UniProt Q86WV6)
Assay: Agonist activity at human STING HAQ variant overexpressed in STING knockout human THP1-Blue ISG cells expressing IRF inducible SEAP reporter construct assessed as increase in interferon production by measuring SEAP activity incubated for 24 hrs by Fingerprinting based QUANTI-Blue colorimetric assay
Type: cell-based
Sequence (Q86WV6 whole entry, looked up, change not shown): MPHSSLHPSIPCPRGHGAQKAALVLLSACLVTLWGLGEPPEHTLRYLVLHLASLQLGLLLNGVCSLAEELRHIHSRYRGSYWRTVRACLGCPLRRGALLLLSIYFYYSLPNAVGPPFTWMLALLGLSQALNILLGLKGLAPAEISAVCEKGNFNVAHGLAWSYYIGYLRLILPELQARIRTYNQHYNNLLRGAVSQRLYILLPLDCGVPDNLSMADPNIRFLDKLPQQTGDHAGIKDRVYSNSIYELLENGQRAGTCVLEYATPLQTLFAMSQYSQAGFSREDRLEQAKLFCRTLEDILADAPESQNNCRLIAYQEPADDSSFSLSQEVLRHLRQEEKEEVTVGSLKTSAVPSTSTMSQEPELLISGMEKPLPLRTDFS
Expressed in nM, but write only the number.

Ask | Data request, read-out EC50, for "Nc1ncnc2c1ncn2[C@@H]1O[C@@H]2CO[P@@](=O)(S)O[C@@H]3[C@H](O)[C@@H](CO[P@@](=O)(S)O[C@H]2[C@H]1F)O[C@H]3n1cnc2c(=O)[nH]nnc21"
Reply | 580

Ask | Data request, read-out EC50, for "Nc1ncnc2c1ncn2[C@@H]1O[C@@H]2CO[P@@](=O)(S)O[C@@H]3[C@H](O)[C@@H](CO[P@@](=O)(S)O[C@H]2[C@H]1F)O[C@H]3c1cnn2c(=O)[nH]ncc12"
Reply | 1040

Ask | Data request, read-out EC50, for "O=c1[nH]ncc2c1ncn2[C@@H]1O[C@@H]2CO[P@@](=O)(S)O[C@H]3[C@@H](O)[C@H](n4cnc5cncnc54)O[C@@H]3CO[P@@](=O)(S)O[C@@H]1[C@@H]2O"
Reply | 2060

----------
Assay: Protein binding in human plasma assessed as unbound fraction at 3 uM incubated for 2 hrs by equilibrium dialysis based HPLC/MS/MS analysis
Assay type: ADME, cell-free
RESULT TYPE: fraction unbound at 2 h, 3 µM
Give a plain numeric answer without units written out.

Ask | Data request, read-out fraction unbound at 2 h, 3 µM, for "Nc1ncnc2c1ncn2[C@@H]1O[C@@H]2CO[P@@](=O)(S)O[C@@H]3[C@H](O)[C@@H](CO[P@@](=O)(S)O[C@H]2[C@H]1F)O[C@H]3n1cnc2c(=O)[nH]ncc21"
Reply | 0.74

----------
For each of the compounds below, state its EC50.
Target: Stimulator of interferon genes protein (Homo sapiens)
Assay: Agonist activity at human STING Q variant overexpressed in STING knockout human THP1-Blue ISG cells expressing IRF inducible SEAP reporter construct assessed as increase in interferon production by measuring SEAP activity incubated for 24 hrs by Fingerprinting based QUANTI-Blue colorimetric assay
Assay type: cell-based
Expressed in µM, but write only the number.

Ask | Data request, read-out EC50, for "Nc1ncnc2c1ncn2[C@@H]1O[C@@H]2CO[P@@](=O)(S)O[C@@H]3[C@H](O)[C@@H](CO[P@@](=O)(S)O[C@H]2[C@H]1F)O[C@H]3n1cnc2c(=O)[nH]nnc21"
Reply | 1.88

Ask | Data request, read-out EC50, for "O=c1[nH]ncc2c1ncn2[C@@H]1O[C@@H]2CO[P@@](=O)(S)O[C@H]3[C@@H](O)[C@H](n4cnc5cncnc54)O[C@@H]3CO[P@@](=O)(S)O[C@@H]1[C@@H]2O"
Reply | 22.5

Ask | Data request, read-out EC50, for "Nc1ncnc2c1ncn2[C@@H]1O[C@@H]2CO[P@@](=O)(S)O[C@@H]3[C@H](O)[C@@H](CO[P@@](=O)(S)O[C@H]2[C@H]1F)O[C@H]3c1cnn2c(=O)[nH]ncc12"
Reply | 3.38

----------
Target: Stimulator of interferon genes protein (Homo sapiens, UniProt Q86WV6)
Test: Agonist activity at human wild type STING overexpressed in STING knockout human THP1-Blue ISG cells expressing IRF inducible SEAP reporter construct assessed as increase in interferon production by measuring SEAP activity incubated for 24 hrs by Fingerprinting based QUANTI-Blue colorimetric assay
Type: cell-based
Sequence (Q86WV6 whole entry): as the sequence (Q86WV6 whole entry, looked up, change not shown) above
RESULT TYPE: pEC50
# log scale: pEC50 equals minus log10 of the concentration in mol/L

Ask | Data request, read-out pEC50, for "Nc1ncnc2c1ncn2[C@@H]1O[C@@H]2CO[P@@](=O)(S)O[C@@H]3[C@H](O)[C@@H](CO[P@@](=O)(S)O[C@H]2[C@H]1F)O[C@H]3c1cnn2c(=O)[nH]ncc12"
Reply | 6.08

Ask | Data request, read-out pEC50, for "O=c1[nH]ncc2c1ncn2[C@@H]1O[C@@H]2CO[P@@](=O)(S)O[C@H]3[C@@H](O)[C@H](n4cnc5cncnc54)O[C@@H]3CO[P@@](=O)(S)O[C@@H]1[C@@H]2O"
Reply | 5.71

Ask | Data request, read-out pEC50, for "Nc1ncnc2c1ncn2[C@@H]1O[C@@H]2CO[P@@](=O)(S)O[C@@H]3[C@H](O)[C@@H](CO[P@@](=O)(S)O[C@H]2[C@H]1F)O[C@H]3n1cnc2c(=O)[nH]nnc21"
Reply | 6.24
